target: NADPH oxidase 2 (Homo sapiens) (UniProt P04839); test: NOX2-dependent H2O2 signal modulators, primary screen, NOX inhibitor project, cell-based, HEK293-NOX2, PMA-stimulated, Amplex Red fluorescence (AID 1159); details: 45 min, higher = more signal, called active from +8 up or from −8 down; note: test concentration not given here
Sequence (P04839 whole entry, looked up): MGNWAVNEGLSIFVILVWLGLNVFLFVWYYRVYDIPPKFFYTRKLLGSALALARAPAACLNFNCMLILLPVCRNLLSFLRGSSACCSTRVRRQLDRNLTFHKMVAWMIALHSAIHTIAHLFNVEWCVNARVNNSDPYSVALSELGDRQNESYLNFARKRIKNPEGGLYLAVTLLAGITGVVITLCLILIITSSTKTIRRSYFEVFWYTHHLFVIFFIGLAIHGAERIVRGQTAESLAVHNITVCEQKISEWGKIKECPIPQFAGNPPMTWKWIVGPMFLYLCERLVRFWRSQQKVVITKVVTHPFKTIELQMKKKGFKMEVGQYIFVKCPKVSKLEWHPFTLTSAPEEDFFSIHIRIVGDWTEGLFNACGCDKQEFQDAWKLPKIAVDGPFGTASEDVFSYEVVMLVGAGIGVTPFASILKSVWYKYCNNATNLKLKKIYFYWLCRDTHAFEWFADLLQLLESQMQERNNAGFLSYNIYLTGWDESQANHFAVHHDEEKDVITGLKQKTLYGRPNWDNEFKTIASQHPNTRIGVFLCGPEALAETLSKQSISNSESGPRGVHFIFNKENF
test.readout: z-score
Reply briefly: the number, and no unit.

# compound, z-score
data = [
    ("CON=C[C@@H](NS(=O)(=O)c1ccc(C)cc1)[C@H](C)C=CCC(=O)OC", -0.153),
    ("CO[C@@H]1COC(=O)[C@@H]2CCCN2C(=O)[C@@H](C)COC(=O)CC=C[C@H]1C", -0.48),
    ("CC(C)(C)N1C(=O)[C@H]2[C@H]3[C@H](O)[C@H](O)CC(=NO[C@@H]4O[C@H](CO)[C@@H](O)[C@H](O)[C@H]4O)[C@H]3CC[C@H]2C1=O", 0.192),
]

Problem: Hello, I am looking for reported z-score with NADPH oxidase 2 (Homo sapiens) (UniProt P04839) for CO[C@H]1COC(=O)CC=C[C@@H](C)[C@H](NS(=O)(=O)c2ccc(C)cc2)COC(=O)CCC[C@@H]1C . Could you help?
Result: -0.255

Problem: NADPH oxidase 2 (Homo sapiens) (UniProt P04839) / z-score / Cc1ccc(S(=O)(=O)N[C@@H]2COC(=O)[C@@H](C)COC(=O)CC=C[C@H]2C)cc1 : value?
Result: -1.19

Problem: NADPH oxidase 2 (Homo sapiens) (UniProt P04839) / z-score / COC(=O)[C@@H]1CC[C@@H](C)[C@H](c2ccc(Br)cc2)N1 : value?
Result: -3.29

Problem: Please state recorded z-score (tested on NADPH oxidase 2 (Homo sapiens) (UniProt P04839)) of CC[C@@H](c1ccccc1)n1c(=O)n2n(c1=O)[C@H]1[C@H](O)[C@@H]3O[C@@H]3C(=NOC[C@@H](O)COCc3ccco3)[C@H]1CC2
Result: -0.892

====

test: cell viability in Huh7 cells, primary screen, cytotoxicity control for HCV replication inhibitor project, CellTiter-Glo luminescence, basal, 48 h (AID 1143); conditions: Huh7 HCV replicon, higher = more signal, called active from +8 up or from −8 down;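 note: Huh7 hepatoma cells carrying a hepatitis C replication reporter with no stimulus; test concentration not given here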
Output T for z-score not less than -1; output F otherwise.

For orientation, consider the following solved cases.
# compound, assigned.category
data = [
    ("COc1cccc([C@@H]2Oc3ccc(OC)cc3C(=O)[C@H]2O)c1", "F"),
    ("COC(=O)[C@@H]1CC[C@H](C)[C@@H](c2ccc(C)cc2)N1C(=O)c1ccc(C=NOC[C@@H](C)[C@H](OCc2ccccc2)C(C)C)cc1", "F"),
]

Moving on to the next compound.
Problem: Item C=COC[C@@H]1CN2[C@@H](CC[C@@H](C)[C@@H]2c2ccc(Br)cc2)C(=O)O1 with z-score of -1 or above?
Result: F

====

molecular target: Torsin-1A-interacting protein 1 (Homo sapiens) (UniProt Q5JTV8); test: LAP1 binders from COS7 cell lysate, primary screen, small-molecule microarray, 635/667 nm fluorescence (AID 1116); details: COS7-hLAP1 lysate binding, 635 nm fluorescence, higher = more signal
Sequence (Q5JTV8 whole entry, looked up): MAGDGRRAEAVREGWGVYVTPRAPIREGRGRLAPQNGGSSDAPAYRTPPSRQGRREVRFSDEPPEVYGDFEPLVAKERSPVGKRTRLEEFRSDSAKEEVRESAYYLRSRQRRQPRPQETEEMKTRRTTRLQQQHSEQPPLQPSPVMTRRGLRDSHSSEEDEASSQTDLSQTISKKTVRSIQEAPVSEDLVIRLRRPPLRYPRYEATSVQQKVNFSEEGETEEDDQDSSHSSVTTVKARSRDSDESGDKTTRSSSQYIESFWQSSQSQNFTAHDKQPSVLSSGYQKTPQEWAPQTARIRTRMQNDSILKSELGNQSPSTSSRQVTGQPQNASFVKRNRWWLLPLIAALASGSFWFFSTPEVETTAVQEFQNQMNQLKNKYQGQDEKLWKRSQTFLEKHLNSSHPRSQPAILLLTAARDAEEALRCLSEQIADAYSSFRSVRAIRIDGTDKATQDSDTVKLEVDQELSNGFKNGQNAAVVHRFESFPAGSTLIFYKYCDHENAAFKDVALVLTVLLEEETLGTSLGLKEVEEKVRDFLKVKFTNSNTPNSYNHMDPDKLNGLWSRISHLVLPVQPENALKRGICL
Reported composite z-score values for a set of compounds

Use the examples below as a reference point.
# chemical.structure, composite z-score
rows = [
    ("C[C@H](ON=C1[C@H]2CCn3c(=O)n(-c4ccccc4)c(=O)n3[C@H]2[C@H](O)[C@@H]2O[C@H]12)c1cn([C@H](CO)Cc2ccccc2)nn1", -0.168),
    ("CON=C[C@@H](C)[C@H](OCc1ccccc1)C(C)C", 1.15),
    ("COC(=O)CC=C[C@@H](C)[C@@H](C=NOC[C@H]1O[C@H](c2ccccc2)C=C[C@@H]1Oc1ccc(OC)cc1)OC", -0.37),
]

Problem: Bench note: what composite z-score did CCCNC(=O)OC[C@H]1O[C@H](CCON=C(C)CCN2CCCc3nc(C)c(C)cc32)C=C[C@@H]1Oc1ccc(OC)cc1 show?
Result: 0.186
